EXPERIMENT DESCRIPTION: The drug is tested on Bacteroides ovatus strain: ATCC8483 for biotransformation. The drug concentrations were measured before and after a 12-h incubation by liquid-chromatography-coupled mass spectrometry (LC–MS)
PROTOCOL CONDITIONS: 2 µM
VALUE KIND: Bacterial Biotransformation

[
  {
    "COMPOUND": "COc1ccccc1OCC(O)COC(N)=O (stereo not drawn) [METHOCARBAMOL]",
    "ASSAY VALUE": "Compound NOT metabolized"
  },
  {
    "COMPOUND": "CC(C(=O)O)c1ccc2c(c1)Cc1cccnc1O2 (stereo not drawn) [PRANOPROFEN]",
    "ASSAY VALUE": "Compound metabolized"
  },
  {
    "COMPOUND": "O=C(CCCN1CCC(O)(c2ccc(Cl)cc2)CC1)c1ccc(F)cc1 [HALOPERIDOL]",
    "ASSAY VALUE": "Compound NOT metabolized"
  },
  {
    "COMPOUND": "CN(C)CCC=C1c2ccccc2C=Cc2ccccc21 [CYCLOBENZAPRINE]",
    "ASSAY VALUE": "Compound NOT metabolized"
  },
  {
    "COMPOUND": "Cc1nc(-c2ccc(OCC(C)C)c(C#N)c2)sc1C(=O)O [FEBUXOSTAT]",
    "ASSAY VALUE": "Compound NOT metabolized"
  }
]

// below: Bacterial Biotransformation requested for another compound
Asked: What value of Bacterial Biotransformation has been reported for the following compound? CCCCC1=NC2(CCCC2)C(=O)N1Cc1ccc(-c2ccccc2-c2nnn[nH]2)cc1 [IRBESARTAN]
Given back: Compound metabolized

Origin of measurements: ChEMBL document CHEMBL5303573
